Target: THR beta-LBD (Homo sapiens, UniProt P10828)
Construct: THR beta-LBD (the final concentration is 0.5 nM) was added to the 384-well assay plate; purchased Invitrogen PV4686
Sequence (P10828 217-461 limits assumed): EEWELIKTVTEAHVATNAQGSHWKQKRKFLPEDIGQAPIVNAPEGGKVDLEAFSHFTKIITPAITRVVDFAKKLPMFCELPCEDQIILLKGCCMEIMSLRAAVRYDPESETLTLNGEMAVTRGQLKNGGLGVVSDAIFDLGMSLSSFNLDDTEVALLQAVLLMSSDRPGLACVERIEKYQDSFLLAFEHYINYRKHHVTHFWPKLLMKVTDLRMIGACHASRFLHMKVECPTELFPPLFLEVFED
Experiment: THR-β Coactivator Peptide Recruitment Assay (LanthaScreen TR-FRET)
Assay type: biochemical
Details: TR-FRET coactivator recruitment, THR beta-LBD 0.5 nM; read-out: THRβ EC50
compounds and their reported EC50

See these solved cases before continuing.
[
  {
    "Chem smiles": "CS(=O)(=O)[C@H]1CCN(S(=O)(=O)c2cc(Oc3c(Cl)cc(-n4nc(C(F)F)c(=O)[nH]c4=O)cc3Cl)ccc2O)C1",
    "EC50": "< 2 nM"
  },
  {
    "Chem smiles": "O=c1[nH]c(=O)n(-c2cc(Cl)c(Oc3cc(S(=O)(=O)NC4CCOCC4)c(O)cn3)c(Cl)c2)nc1C(F)F",
    "EC50": "2 to 20 nM"
  },
  {
    "Chem smiles": "N#Cc1cc(O)c(S(=O)(=O)N[C@H]2C[C@H](O)C2)cc1Oc1c(Cl)cc(-n2nc(C(F)F)c(=O)[nH]c2=O)cc1Cl",
    "EC50": "> 100 nM"
  },
  {
    "Chem smiles": "N#Cc1nn(-c2cc(Cl)c(Oc3cc(S(=O)(=O)NC4CCC4)c(O)cn3)c(Cl)c2)c(=O)[nH]c1=O",
    "EC50": "2 to 20 nM"
  },
  {
    "Chem smiles": "O=c1[nH]c(=O)n(-c2cc(Cl)c(Oc3ccc(O)c(S(=O)(=O)NC[C@H]4C[C@H](O)C4)c3)c(Cl)c2)nc1C(F)F",
    "EC50": "2 to 20 nM"
  }
]

Ask: Supply recorded EC50 for `O=C(NC1CCC1)C1(NS(=O)(=O)c2cc(Oc3c(Cl)cc(-n4nc(C(F)F)c(=O)[nH]c4=O)cc3Cl)ccc2O)CC1` here.
Reply: < 2 nM

====

Target: THR beta-LBD (Homo sapiens, UniProt P10828)
Construct: THR beta-LBD (the final concentration is 0.5 nM) was added to the 384-well assay plate; purchased Invitrogen PV4686
Test: THR-β Coactivator Peptide Recruitment Assay (LanthaScreen TR-FRET)
Type: biochemical
Details: TR-FRET coactivator recruitment, THR beta-LBD 0.5 nM

[
  {
    "Chem smiles": "CNS(=O)(=O)c1cc(Oc2c(Cl)cc(-n3nc(C(F)(F)F)c(=O)[nH]c3=O)cc2Cl)ccc1O",
    "THRβ Emax": "A (90~110)"
  },
  {
    "Chem smiles": "CS(=O)(=O)c1cc(Oc2c(Cl)cc(-n3nc(C(F)F)c(=O)[nH]c3=O)cc2Cl)ccc1O",
    "THRβ Emax": "A (90~110)"
  }
]

====

Molecular target: THR alpha-LBD (Homo sapiens, UniProt P10827)
Construct: except that THR alpha-LBD of a final concentration 0.25 nM was used; purchased Invitrogen PV4687
Sequence (P10827 163-410 isoform P10827-2 limits assumed, other chains not shown): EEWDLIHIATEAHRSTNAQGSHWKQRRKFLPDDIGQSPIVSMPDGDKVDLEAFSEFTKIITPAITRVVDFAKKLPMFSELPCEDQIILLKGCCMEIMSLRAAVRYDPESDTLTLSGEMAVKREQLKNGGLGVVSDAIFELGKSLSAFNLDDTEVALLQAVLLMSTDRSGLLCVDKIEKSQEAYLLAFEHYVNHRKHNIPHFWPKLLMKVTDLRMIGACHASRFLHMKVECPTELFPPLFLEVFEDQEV
Assay: THR-α Coactivator Peptide Recruitment Assay (LanthaScreen TR-FRET)
Assay type: biochemical
Conditions: TR-FRET coactivator recruitment, THR alpha-LBD 0.25 nM
Protocol: A time-resolved FRET (TR-FRET) assay was used to test representative compounds of the application. THR-β Coactivator Peptide Recruitment Assay were conducted by using Invitrogen's LanthaScreen™ TR-FRET Thyroid Receptor beta Assay Kit (Catalog no. PV4686). […] After a gentle mix and incubation at room temperature for 2 h, the signal was read on the EnVision Multilabel Plate Reader at wavelengths of 520 nm and 495 nm. […]
Quantity measured: THRα Emax

See these solved cases before continuing.
[
  {
    "Chem smiles": "O=C(C1CC1)N1CCN(S(=O)(=O)c2cc(Oc3c(Cl)cc(-n4nc(C(F)F)c(=O)[nH]c4=O)cc3Cl)ccc2O)CC1",
    "Test target": "THR alpha-LBD (Homo sapiens, UniProt P10827)",
    "Quantity measured": "THRα Emax",
    "Obs value": "C (<40)"
  },
  {
    "Chem smiles": "O=C(NC1CC1)C1(NS(=O)(=O)c2cc(Oc3c(Cl)cc(-n4nc(C(F)F)c(=O)[nH]c4=O)cc3Cl)ccc2O)CCC1",
    "Test target": "THR alpha-LBD (Homo sapiens, UniProt P10827)",
    "Quantity measured": "THRα Emax",
    "Obs value": "B (40~85)"
  },
  {
    "Chem smiles": "CNC(=O)[C@H]1C[C@H](NS(=O)(=O)c2cc(Oc3c(Cl)cc(-n4nc(C(F)F)c(=O)[nH]c4=O)cc3Cl)ccc2O)C1",
    "Test target": "THR alpha-LBD (Homo sapiens, UniProt P10827)",
    "Quantity measured": "THRα Emax",
    "Obs value": "B (40~85)"
  },
  {
    "Chem smiles": "CO[C@H]1C[C@H](NS(=O)(=O)c2cc(Oc3c(Cl)cc(-n4nc(C(F)F)c(=O)[nH]c4=O)cc3Cl)ncc2O)C1",
    "Test target": "THR alpha-LBD (Homo sapiens, UniProt P10827)",
    "Quantity measured": "THRα Emax",
    "Obs value": "B (40~85)"
  }
]

Continue with the next molecule.
Ask: Supply recorded THRα Emax for `O=c1[nH]c(=O)n(-c2cc(Cl)c(Oc3ccc(O)c(S(=O)(=O)N[C@H]4CCN(S(=O)(=O)C5CC5)C4)c3)c(Cl)c2)nc1C(F)F` here.
Reply: C (<40)

The measured values listed here are drawn from patent US12291518B2.
